- target-or-system: T1, hANGPTL3(17-460)-His (human, UniProt Q9Y5C1 17-460)
- T1 construct: Bought protein (R&D Systems); also called full-length mature human ANGPTL3 with a C-terminal decahistidine tag; Human ANGPTL3 (17-460)-His
- T1 sequence: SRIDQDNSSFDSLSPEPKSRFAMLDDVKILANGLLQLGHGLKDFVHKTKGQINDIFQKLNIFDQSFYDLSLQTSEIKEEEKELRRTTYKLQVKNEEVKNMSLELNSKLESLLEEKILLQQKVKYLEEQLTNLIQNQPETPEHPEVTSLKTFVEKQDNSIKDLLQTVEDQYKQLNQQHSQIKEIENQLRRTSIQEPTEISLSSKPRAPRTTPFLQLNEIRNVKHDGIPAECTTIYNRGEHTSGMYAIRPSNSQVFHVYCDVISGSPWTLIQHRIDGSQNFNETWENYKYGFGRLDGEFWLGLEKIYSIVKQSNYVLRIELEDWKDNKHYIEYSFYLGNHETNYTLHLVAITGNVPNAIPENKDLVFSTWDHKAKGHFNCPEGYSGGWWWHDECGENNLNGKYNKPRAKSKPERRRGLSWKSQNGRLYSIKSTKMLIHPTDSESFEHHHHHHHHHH
- assay-protocol: SPR Biacore, antigen captured, 25C, pH 7.4, HBS-EP
t1/2 overview
measure: t1/2

[[record]]
binder = "H4H1250P (antibody, IgG4, V domains shown) VH: QVQLVESGGGVVQPGRSLRLSCAASGFTFSSYGMHWVRQAPGKGLEWVAVISNDGSNKYYVDSVKGRFTMGRDNSKNTLYLQMNSLRVEDTAVYYCAKGAGTLYYYYYGMDVWGQGTTVTVSS VL: DIQMTQSPSTLSASVGNRVTITCRASQSISSWLAWYQQKPGKAPKFLIYKASSLESGVPSRFSGSGSGTEFTLTITSLQPDDFATYYCQQYNIYSWTFGQGTKVEIK"
measure = "t1/2"
recorded_measurement = "18 min"

[[record]]
binder = "H4H1248P (antibody, IgG4, V domains shown) VH: QVQLVESGGGVVQPGRSLRLSCAASGFTFSSYGMHWVRQAPGKGLEWVAVISYDGSNKYYADSVKGRFTISRDNSKNTLYLQMNSLRAEDTAVYYCAKVGATTFYYYYGMDVWGQGTTVTVSS VL: DIQMTQSPSSVSAFVGDRVTITCRASQGISSWLAWYQQKPGKAPKLLIYAASSLQSGVPSRFSGSGSGTDFTLTISSLQPEDFATYYCQKANSFPFTFGPGTKVEIK"
measure = "t1/2"
recorded_measurement = "5 min"

[[record]]
binder = "H4H1292P (antibody, IgG4, V domains shown) VH: QVQLVESGGGLVKPGGSLRLSCAASGFTFSDYYMSWIRQAPGKGLEWVSYISSSGSTIYYADSVKGRFTISRDNAKNSLYLQMNSLRAEDTAVYYCARDSSQLGFDYWGQGTLVTVSS VL: DIQMTQSPSSLSASVGDRVTITCRASQSIISFLNWYQQKPGKAPKLLIYTASSLQSGVPSRFSGSGSGTDFTLTISSLQPEDFATYYCQQTYSNPLTFGGGTKVEIKR"
measure = "t1/2"
recorded_measurement = "47 min"


From: patent US20150197564A1
